The reported numbers originate from ChEMBL document CHEMBL3259707.

Experiment: Retention time of the compound by HPLC analysis
Format: physicochemical
QUANTITY: Retention_time (min)

Past entries and their recorded results:
CCOC(=O)c1csc([C@@H](NC(=O)c2cnc3ccccc3c2)C(C)C)n1 | 3.3
COc1cc(NC(=O)c2csc([C@@H](NC(=O)c3csc([C@@H](NC(=O)OC(C)(C)C)C(C)C)n3)C(C)C)n2)cc(OC)c1OC | 8
COc1cc2c(cc1OC)CN(C(=O)c1csc([C@@H](NC(=O)c3cc(OC)c(OC)c(OC)c3)C(C)C)n1)CC2 | 2.8
COc1cc(C(=O)N[C@H](c2nc(C(=O)NC3Cc4ccccc4C3)cs2)C(C)C)cc(OC)c1OC | 4.1
COc1cc(C(=O)N[C@H](c2nc(C(=O)Nc3ccccc3C(=O)c3ccc(F)cc3)cs2)C(C)C)cc(OC)c1OC | 9.5
CCOC(=O)c1csc([C@@H](NC(=O)c2cc(OC)c(OC)c(OC)c2)C(C)C)n1 | 3.7

I. COc1cc2c(cc1OC)C(=O)C(CC1CCN(C(=O)c3csc([C@@H](NC(=O)OC(C)(C)C)C(C)C)n3)CC1)C2 (stereo partly specified)
II. COc1cc(CNC(=O)c2csc([C@@H](NC(=O)c3cc(OC)c(OC)c(OC)c3)C(C)C)n2)cc(OC)c1OC
Prompt: Among I and II , which shows a numerically higher Retention_time result? Your answer should be the label attached to the chosen record.
Response: I

---

Experiment: Retardation factor of the compound using EtOAc-n-hexane at ratio of 3:2 by thin layer chromatography
Type: physicochemical
QUANTITY: Rf

Past entries and their recorded results:
COc1cc(C(=O)N[C@H](c2nc(C(=O)NCc3ccc(-c4ccccc4)cc3)cs2)C(C)C)cc(OC)c1OC | 0.5
COc1cc2c(cc1OC)CN(C(=O)c1csc([C@@H](NC(=O)c3cc(OC)c(OC)c(OC)c3)C(C)C)n1)CC2 | 0.3
COc1cc(C(=O)N[C@H](c2nc(C(=O)Nc3ccccc3C(=O)c3ccc(F)cc3)cs2)C(C)C)cc(OC)c1OC | 0.4
COc1cc(C(=O)N[C@H](c2nc(C(=O)NC3Cc4ccccc4C3)cs2)C(C)C)cc(OC)c1OC | 0.5
COc1cc(C(=O)N[C@H](c2nc(C(=O)Nc3ccc(C(=O)c4ccccc4)cc3)cs2)C(C)C)cc(OC)c1OC | 0.5

P. COc1cc(C(=O)N[C@H](c2nc(C(=O)Nc3ccc4c(c3)OCO4)cs2)C(C)C)cc(OC)c1OC
Q. COc1cc(C(=O)N[C@H](c2nc(C(=O)NCc3ccc4c(c3)OCO4)cs2)C(C)C)cc(OC)c1OC
R. COc1cc(C(=O)N[C@H](c2nc(C(=O)NCCc3ccccn3)cs2)C(C)C)cc(OC)c1OC
Prompt: Form: Sort by [Rf] Order [ ascending ] Form field (ranking): labels in requested order.
Response: R, Q, P
(R: 0.2, Q: 0.35, P: 0.5)

---

Listed below: pIC50 values for each entry.
Test: Inhibition of mouse P-gp
Scale: negative log10 of molar concentration, which is what pIC50 denotes.

CC(C)[C@H]1NC(=O)c2csc(n2)[C@@H](C(C)C)NC(=O)c2csc(n2)[C@@H](C(C)C)NC(=O)c2csc1n2 | 5.08

Moving on to the next compound.
Prompt: I am curious: what pIC50 value has been reported for "CC(C)[C@@H]1NC(=O)c2csc(n2)[C@H](C(C)C)NC(=O)c2csc(n2)[C@H](C(C)C)NC(=O)c2csc1n2" ?
Response: 5.57
